# Assayed Target: IGF-1R (Homo sapiens, UniProt P08069)
# Construct: expressed in transfected cells
# Sequence (P08069 31-1367): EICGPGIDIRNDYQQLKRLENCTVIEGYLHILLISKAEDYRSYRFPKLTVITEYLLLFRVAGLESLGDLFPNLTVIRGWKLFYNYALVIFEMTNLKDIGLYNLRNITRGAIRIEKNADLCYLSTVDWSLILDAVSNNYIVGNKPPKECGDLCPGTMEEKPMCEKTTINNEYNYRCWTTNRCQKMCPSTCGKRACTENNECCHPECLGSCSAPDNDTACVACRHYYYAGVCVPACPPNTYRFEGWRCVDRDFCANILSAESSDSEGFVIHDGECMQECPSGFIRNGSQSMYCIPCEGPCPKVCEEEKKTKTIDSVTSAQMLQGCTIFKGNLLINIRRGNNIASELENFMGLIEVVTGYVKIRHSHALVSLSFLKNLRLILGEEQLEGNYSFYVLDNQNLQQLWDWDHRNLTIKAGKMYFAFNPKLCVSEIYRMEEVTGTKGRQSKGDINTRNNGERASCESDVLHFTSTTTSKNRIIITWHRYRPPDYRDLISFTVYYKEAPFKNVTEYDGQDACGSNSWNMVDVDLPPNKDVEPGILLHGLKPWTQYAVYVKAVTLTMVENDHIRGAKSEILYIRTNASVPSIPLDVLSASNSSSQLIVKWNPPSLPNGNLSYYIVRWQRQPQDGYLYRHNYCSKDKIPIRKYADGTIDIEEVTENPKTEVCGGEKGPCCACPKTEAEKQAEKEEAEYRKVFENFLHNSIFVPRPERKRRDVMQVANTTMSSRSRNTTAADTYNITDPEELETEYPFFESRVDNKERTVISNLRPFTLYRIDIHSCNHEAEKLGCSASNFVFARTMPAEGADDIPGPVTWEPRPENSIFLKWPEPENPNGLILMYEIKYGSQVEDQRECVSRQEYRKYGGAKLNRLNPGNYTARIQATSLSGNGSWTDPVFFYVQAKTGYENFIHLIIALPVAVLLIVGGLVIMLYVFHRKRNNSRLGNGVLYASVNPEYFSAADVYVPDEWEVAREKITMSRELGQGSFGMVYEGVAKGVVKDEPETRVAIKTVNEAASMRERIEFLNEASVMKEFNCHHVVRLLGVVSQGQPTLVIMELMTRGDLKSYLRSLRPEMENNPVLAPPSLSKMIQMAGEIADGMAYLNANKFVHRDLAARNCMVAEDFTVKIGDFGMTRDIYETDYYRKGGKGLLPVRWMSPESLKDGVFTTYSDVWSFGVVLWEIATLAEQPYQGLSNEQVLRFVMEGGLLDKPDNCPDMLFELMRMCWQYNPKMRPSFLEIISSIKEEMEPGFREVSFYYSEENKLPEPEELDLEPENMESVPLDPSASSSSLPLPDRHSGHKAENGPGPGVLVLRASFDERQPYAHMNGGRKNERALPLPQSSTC
# Measurement Description: Example B-1: IGF-1R Assay (PC3 cells stimulated with IGF1, AlphaLISA on cell lysates)
# Format: cell-based
# Condition Set: compound two hours, IGF1 200 ng/mL for 30 min, read-out: IC50, Biological Activity against IGF-1R (Table B1)
Reported IC50 values for a set of compounds

Reference set (3 entries):
> print(dat)
                                   compound  property  endpoint.result
1  Nc1cc(CN2C(=O)N(c3ccc(SC(F)(F)F)cc3)C(=O)C23CCCCC3)ccn1      IC50       2 to 10 µM
2  CC(C)Nc1cc(CN2C(=O)N(c3ccc(C(C)(C)C)cc3)C(=O)C2(C)C)ccn1      IC50         ≤ 0.5 µM
3  CC(=O)Nc1cc(CN2C(=O)N(c3ccc(SC(F)(F)F)cc3)C(=O)C2(C)C)ncn1      IC50         ≤ 0.5 µM

Req: Lab request: please report IC50 under test system IGF-1R (Homo sapiens, UniProt P08069) for CC(C)Nc1cc(CN2C(=O)N(c3ccc4c(c3)N(C)CC4(C)C)C(=O)C2(C)C)ccn1
Resp: ≤ 0.5 µM

Req: Lab request: please report IC50 under test system IGF-1R (Homo sapiens, UniProt P08069) for CC(C)Nc1cc(CN2C(=O)N(c3ccc(C4(C#N)CCCCC4)cc3)C(=O)C2(C)C)ccn1
Resp: 0.5 to 2 µM

Req: Lab request: please report IC50 under test system IGF-1R (Homo sapiens, UniProt P08069) for CC1(C)C(=O)N(c2ccc(SC(F)(F)F)cc2)C(=O)N1Cc1ccnc(NC(=O)Nc2cccnc2)c1
Resp: ≤ 0.5 µM

Req: Lab request: please report IC50 under test system IGF-1R (Homo sapiens, UniProt P08069) for CC1(C)C(=O)N(c2ccc(C3(C(F)(F)F)CCC3)cc2)C(=O)N1Cc1ccnc(NC2CCOCC2)c1
Resp: ≤ 0.5 µM

Req: Lab request: please report IC50 under test system IGF-1R (Homo sapiens, UniProt P08069) for CC1(C)C(=O)N(c2ccc(C3CCOC3)cc2)C(=O)N1Cc1ccnc(N)c1 (centres unmarked)
Resp: 0.5 to 2 µM

Req: Lab request: please report IC50 under test system IGF-1R (Homo sapiens, UniProt P08069) for CC1(C)C(=O)N(c2ccc(C3(C(F)(F)F)CC3)cc2)C(=O)N1Cc1ccnc2[nH]c(-c3ccccc3)cc12
Resp: ≤ 0.5 µM

Req: Lab request: please report IC50 under test system IGF-1R (Homo sapiens, UniProt P08069) for CC1(C)C(=O)N(c2ccc(C3(C(F)(F)F)CC3)cc2)C(=O)N1Cc1ccnc2[nH]ccc12
Resp: ≤ 0.5 µM

Req: Lab request: please report IC50 under test system IGF-1R (Homo sapiens, UniProt P08069) for CC1(C)C(=O)N(c2ccc(SC(F)(F)F)cc2)C(=O)N1Cc1ccnc(Nc2cccc(O)n2)c1
Resp: 0.5 to 2 µM

Req: Lab request: please report IC50 under test system IGF-1R (Homo sapiens, UniProt P08069) for CC1(C)C(=O)N(c2ccc(SC(F)(F)F)cc2)C(=O)N1Cc1ccnc(NC(=O)Nc2cccc(F)c2)c1
Resp: ≤ 0.5 µM

Req: Lab request: please report IC50 under test system IGF-1R (Homo sapiens, UniProt P08069) for CC(c1ccnc(N)c1)N1C(=O)N(c2ccc(C3(C(F)(F)F)CC3)cc2)C(=O)C1(C)C (centres unmarked)
Resp: ≤ 0.5 µM

Req: Lab request: please report IC50 under test system IGF-1R (Homo sapiens, UniProt P08069) for Cn1cc(NC(=O)Nc2cc(CN3C(=O)N(c4ccc(SC(F)(F)F)cc4)C(=O)C3(C)C)ccn2)cn1
Resp: ≤ 0.5 µM

Req: Lab request: please report IC50 under test system IGF-1R (Homo sapiens, UniProt P08069) for CC1(C)C(=O)N(c2ccc(C#N)cc2)C(=O)N1Cc1ccnc(N)c1
Resp: 0.5 to 2 µM
